Molecular target: GRK6 palmitoylation-deficient (human, UniProt P43250 1-576, C561S;C562S;C565S)
Sequence (P43250 whole entry C561S/C562S/C565S): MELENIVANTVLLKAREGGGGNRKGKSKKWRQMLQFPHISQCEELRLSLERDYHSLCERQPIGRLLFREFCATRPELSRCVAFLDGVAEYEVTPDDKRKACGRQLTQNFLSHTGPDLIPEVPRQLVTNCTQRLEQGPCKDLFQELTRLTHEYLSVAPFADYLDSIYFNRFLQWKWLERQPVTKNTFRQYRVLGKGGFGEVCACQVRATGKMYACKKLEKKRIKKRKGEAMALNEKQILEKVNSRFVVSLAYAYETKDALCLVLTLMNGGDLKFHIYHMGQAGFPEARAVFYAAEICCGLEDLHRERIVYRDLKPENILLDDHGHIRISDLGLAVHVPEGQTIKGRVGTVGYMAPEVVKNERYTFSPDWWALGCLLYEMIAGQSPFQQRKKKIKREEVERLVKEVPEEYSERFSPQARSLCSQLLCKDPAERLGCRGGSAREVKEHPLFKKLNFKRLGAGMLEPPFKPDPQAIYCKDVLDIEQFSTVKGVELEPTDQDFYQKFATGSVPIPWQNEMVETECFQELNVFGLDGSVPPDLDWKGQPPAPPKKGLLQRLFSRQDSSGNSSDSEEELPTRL
Test: competition
assay-metric: pIC50
# pIC50 = -log10(concentration in molar units)

Need pIC50 of GGCAGACCAUACGGGAGAGAAACUUGCC (ssRNA) [C13.28] , thanks.
6.68

Data provenance: paper PMC3418449
